Assay read-out MIC; system under study: Candida albicans ATCC 2002.

CSCC[C@H](NC(=O)[C@H](CCCCN)NC(=O)[C@@H](NC(=O)[C@H](CCC(=O)O)NC(=O)[C@H](CCCCN)NC(=O)[C@H](CCCCN)NC(=O)[C@H](CCCCN)NC(=O)[C@H](CCCCN)NC(=O)[C@H](CC(C)C)NC(=O)[C@H](CCSC)NC(=O)[C@@H](N)CCC(=O)O)C(C)C)C(=O)N[C@@H](CCC(=O)O)C(=O)N[C@@H](CCCN=C(N)N)C(=O)N[C@@H](CCCCN)C(=O)N[C@H](C(=O)O)[C@@H](C)O
≥ 105 µM

Next up:
Provide the reported MIC (system: Candida albicans ATCC 2002) for CC[C@H](C)[C@H](NC(=O)[C@H](CC(N)=O)NC(=O)[C@H](Cc1ccccc1)NC(=O)[C@H](CCSC)NC(=O)[C@H](CC(N)=O)NC(=O)[C@@H](N)CCC(=O)O)C(=O)N[C@@H](CCCCN)C(=O)N[C@@H](CO)C(=O)N[C@@H](CO)C(=O)N[C@H](C(=O)N[C@@H](CCC(=O)O)C(=O)N[C@@H](CO)C(=O)N[C@@H](CC(=O)O)C(=O)N[C@@H](CO)C(=O)N[C@@H](Cc1ccccc1)C(=O)N[C@@H](Cc1c[nH]c2ccccc12)C(=O)NCC(=O)O)C(C)C ≥ 101 µM

====

Tested on: Pseudomonas aeruginosa ATCC 9027
Assay: ≥ marks a high value that may be exact or a test limit, other limits are often not marked, values filed in µg/mL are converted to µM
value type: MIC (µM)
Use µM as the unit, but write only the number.

Check the records and state MIC for CC[C@H](C)[C@H](NC(=O)[C@H](CCCCN)NC(=O)[C@H](CCCCN)NC(=O)[C@H](C)NC(=O)[C@@H](NC(=O)[C@H](CCCCN)NC(=O)[C@H](CC(C)C)NC(=O)[C@H](CC(C)C)NC(=O)[C@H](CCCCN)NC(=O)[C@H](CCCCN)NC(=O)[C@H](CC(C)C)NC(=O)[C@H](CC(N)=O)NC(=O)[C@@H](N)CC(C)C)C(C)C)C(=O)N[C@@H](CC(C)C)C(N)=O [LNLKKLLKVAKKIL] 4

====

Tested on: Escherichia coli ATCC 25922
value type: MIC (µM)
Use µM as the unit, but write only the number.

Solved cases (2 shown):
CC(C)[C@H](NC(=O)[C@H](CCCN=C(N)N)NC(=O)[C@H](Cc1c[nH]c2ccccc12)NC(=O)[C@H](CCCN=C(N)N)NC(=O)[C@@H](NC(=O)[C@H](CCCCN)NC(=O)[C@H](Cc1c[nH]c2ccccc12)NC(=O)[C@H](CCCN=C(N)N)NC(=O)[C@@H](NC(=O)[C@H](CCCN=C(N)N)NC(=O)[C@@H](N)Cc1c[nH]c2ccccc12)C(C)C)C(C)C)C(=O)N[C@@H](CCCCN)C(N)=O
4
CC[C@H](C)[C@H](NC(=O)[C@H](C)NC(=O)CNC(=O)[C@H](Cc1ccccc1)NC(=O)[C@H](CC(C)C)NC(=O)CN)C(=O)N[C@@H](C)C(=O)NCC(=O)N[C@@H](Cc1ccccc1)C(=O)N[C@H](C(=O)N[C@@H](CCCCN)C(=O)N[C@@H](CCCCN)C(=O)NCC(=O)N[C@@H](Cc1c[nH]c2ccccc12)C(=O)N1CCC[C@H]1C(=O)NCC(=O)N[C@@H](CC(C)C)C(=O)N[C@H](C(=O)N[C@@H](CCCCN)C(=O)NCC(N)=O)C(C)C)[C@@H](C)CC
7.8

Next up:
Provide the reported MIC (system: Escherichia coli ATCC 25922) for CC[C@H](C)[C@H](NC(=O)CNC(=O)[C@H](C)NC(=O)[C@H](CC(C)C)NC(=O)[C@H](C)NC(=O)[C@@H]1CCCN1C(=O)[C@H](CC(C)C)NC(=O)[C@@H](N)Cc1ccccc1)C(=O)N[C@@H](C)C(=O)NCC(=O)N[C@@H](CC(C)C)C(=O)N[C@@H](CC(C)C)C(=O)NCC(=O)N[C@@H](CCCCN)C(=O)N[C@H](C(=O)N[C@@H](Cc1ccccc1)C(N)=O)[C@@H](C)CC 25

All values here come from DBAASP.
